Values were extracted from patent US20100093872A1.

assayRemarks: physchem
Type: physicochemical
testConditions: 95 °C, organic solvent or mixture, thermodynamic from solid, Solubility
observedProperty: solubility

// returns reported solubility for input COc1ccc(C[C@@H](C)[C@@H](C)Cc2ccc(OC)c(OC)c2)cc1OC [terameprocol, tetra-o-methyl nordihydroguaiaretic acid]
> 600 mg/mL

* * *

assayRemarks: physchem
Type: physicochemical
testConditions: 80 °C, organic solvent or mixture, thermodynamic from solid, Solubility
observedProperty: solubility

// returns reported solubility for input COc1ccc(C[C@@H](C)[C@@H](C)Cc2ccc(OC)c(OC)c2)cc1OC [terameprocol, tetra-o-methyl nordihydroguaiaretic acid]
> 400 mg/mL

* * *

assayRemarks: physchem
Format: physicochemical
testConditions: 40 °C, organic solvent or mixture, thermodynamic from solid, Solubility
observedProperty: solubility (mg/mL)
Response body: numeric value in mg/mL, unit text excluded.

// returns reported solubility for input COc1ccc(C[C@@H](C)[C@@H](C)Cc2ccc(OC)c(OC)c2)cc1OC [terameprocol, tetra-o-methyl nordihydroguaiaretic acid]
10.1
